# STUDY_TARGET: Cytochrome P450 2C19 (Homo sapiens, UniProt P33261)
# Sequence (P33261 whole entry): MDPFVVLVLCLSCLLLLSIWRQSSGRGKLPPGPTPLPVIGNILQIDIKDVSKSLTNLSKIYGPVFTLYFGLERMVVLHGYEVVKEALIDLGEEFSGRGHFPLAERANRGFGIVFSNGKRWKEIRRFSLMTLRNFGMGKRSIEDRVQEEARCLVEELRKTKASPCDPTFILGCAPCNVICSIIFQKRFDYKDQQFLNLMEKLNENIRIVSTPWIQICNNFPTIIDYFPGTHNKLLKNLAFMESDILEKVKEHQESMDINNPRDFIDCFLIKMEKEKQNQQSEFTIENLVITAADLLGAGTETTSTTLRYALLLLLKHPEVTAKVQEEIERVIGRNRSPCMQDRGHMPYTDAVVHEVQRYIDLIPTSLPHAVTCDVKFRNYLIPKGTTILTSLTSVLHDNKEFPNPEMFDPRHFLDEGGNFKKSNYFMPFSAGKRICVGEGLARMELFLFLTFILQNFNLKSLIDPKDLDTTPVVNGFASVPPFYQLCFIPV
# PROTOCOL_TEXT: Cytochrome panel assay with activity outcomes. Panel member name: p450-cyp2c19 Compounds with AC50 equal or less than 10 uM are considered active
# Format: functional
# MEASUREMENT_PARAMETERS: read-out: AC50
MEASURED_METRIC: AC50

IN: Record request: AC50 value, item Clc1ccccc1CSc1nnc(-c2ccncc2)o1
OUT: 0.126 µM (inconclusive)

IN: // returns reported AC50 for input Cn1cc(-c2nc3cncnc3n(CCN)c2=O)c2ccccc21
OUT: 31.6 µM (inconclusive)

IN: Requested read-out: AC50. Entry: CS(=O)(=O)Nc1ccc(C(=O)N2CCN(c3ccccc3)CC2)cc1
OUT: 39.8 µM (inconclusive)

IN: Recorded AC50 for CCOC(=O)Cc1csc(NC(=O)c2sc3nc4ccc(CC)cc4cc3c2N)n1 , please?
OUT: 0.2 µM (inconclusive)
